System: Malme-3M
Experiment description: NCI tumour cell line growth inhibition, 48 h
Active and inactive are the calls of the source. No stated cut-off is given here; in the data, active = GI50 up to about 1.1 µM and inactive = higher.
Classes to choose from: y (active), n (inactive)

// known answers, use as guide
>>> discrete_label("COc1nc(N)nc2c1ncn2C1CC(O)C(CO)O1 (stereo not given)")
"n"
>>> discrete_label("N#CC(c1ccccc1)c1nc2ccc(N)cc2[n+]([O-])c1C(C#N)c1ccccc1 (stereo not given)")
"n"
>>> discrete_label("Cc1ccc(S(=O)(=O)N(CC(O)COc2ccccc2)c2c(F)c(F)c(F)c(F)c2F)cc1 (stereo not given)")
"n"

Could you please tell me the result logged for O=C(Nc1ccc(Cl)c(Cl)c1)OCCN1c2ccccc2Sc2ccccc21 in this assay?
n

Could you please tell me the result logged for O=C1Nc2ccc(Cl)cc2C(=O)N2CCC[C@@H]12 in this assay?
n

Could you please tell me the result logged for O=C(/C=C/c1ccc(O)c(O)c1)OCCCc1ccccc1 in this assay?
n

Could you please tell me the result logged for [N-]=[N+]=Nc1ccc2c(c1)Sc1ccccc1N2CCCCN1CCN(C(=O)CCNC(=O)Cc2ccc(C(=O)c3ccccc3)cc2)CC1 in this assay?
n

Could you please tell me the result logged for [N-]=[N+]=CC(=O)CCC(=O)N(c1ccccc1)c1ccccc1 in this assay?
n

Could you please tell me the result logged for COc1ccc(OC)c2c1C=CC(Br)=CC2 in this assay?
y

Could you please tell me the result logged for Cc1nn(C(=O)Cc2ccccc2)c2c1C(c1ccccc1)SC(=N)N2 (stereo not given) in this assay?
n

* * *

Test system: DMS-273
Experiment description: NCI tumour cell line growth inhibition, 48 h
Active and inactive are the calls of the source. Rule as the data show it: active = GI50 up to about 1.1 µM and inactive = higher.
Classes to choose from: label 1 = active, label 0 = inactive

// known answers, use as guide
>>> discrete_label("O=C(O)c1ccccc1NS(=O)(=O)c1ccc(Cl)cc1")
"label 0"
>>> discrete_label("CCOC(=O)C(C(=O)c1ccccc1-c1ccccc1C(=O)O)=P(c1ccccc1)(c1ccccc1)c1ccccc1")
"label 0"
>>> discrete_label("OC(c1ccccc1)(c1ccccc1)c1ccncc1")
"label 0"
>>> discrete_label("COc1cccc2c1C(=O)c1c(O)c3c(c(O)c1C2=O)C[C@@](O)(C(C)=O)C[C@@H]3OC1CC(N)C(O)C(C)O1 (stereo partly specified)")
"label 1"
>>> discrete_label("CN(C)CCC(CCN(C)C)=NO")
"label 0"

Could you please tell me the result logged for Cn1c(=O)[nH]c2c(c1=O)C(=O)CN2 in this assay?
label 0

* * *

System: EKVX
Experiment description: NCI tumour cell line growth inhibition, 48 h
Activity calls are given as the source filed them. Rule as the data show it: active = GI50 up to about 1.1 µM and inactive = higher. Residues, ends and D or L forms follow the SMILES beside them. *: point of attachment. Cbz = O=C(OCc1ccccc1)*
Classes to choose from: active, inactive

>>> discrete_label("O=C1CCSc2c(cnc3ccccc23)N1")
"inactive"
>>> discrete_label("COc1ccc(/C=C/NC=O)cc1")
"inactive"
>>> discrete_label("CN1C/C(=C\\C=C\\c2ccccc2)C(=O)/C(=C/C=C/c2ccccc2)C1")
"inactive"
>>> discrete_label("CC(=O)Oc1c2c(c(CC=C(C)C)c3c1C(=O)C1=C[C@@H]4CC5C(C)(C)OC(C/C=C(/C)C(=O)O)(C4=O)[C@@]15O3)OC(C)(CCC=C(C)C)C=C2 (stereo not given in full)")
"active"
>>> discrete_label("O=C(/C=C/c1cccc(Oc2ccccc2)c1)NCc1ccc(C(=O)NCc2ccccc2)cc1")
"inactive"

Could you please tell me the result logged for C#CCNC(Cc1c[nH]cn1)C(=O)O (stereo not given) in this assay?
inactive

Could you please tell me the result logged for COCCCNc1c2ccccc2nc2ccccc12 in this assay?
inactive

Could you please tell me the result logged for CC(NC(=O)C(NC(=O)OCc1ccccc1)C(C)C)C(=O)NCC(=O)O (stereo not drawn) (Cbz-Val-Ala-Gly-OH; configuration not given here) in this assay?
inactive

Could you please tell me the result logged for COC(=O)[C@]1(c2cc3ccccc3[nH]2)CC2CN(C(=O)OCc3ccccc3)C1C=C2OC (stereo not given in full) in this assay?
inactive

Could you please tell me the result logged for COc1cc(=O)oc(/C=C/CO)c1C in this assay?
inactive
